Where these numbers come from: patent EP4273147A1

Tested on: TRZAS
Assay: Pre-emergence effects on crop plants (Table D2)
Type: in vivo, Triticum aestivum
Conditions: crop plant; application rate 80 g/ha; visual grading after ca. 3 weeks
assay-endpoint: pre-emergence activity against TRZAS (%)

molecule	pre-emergence activity against TRZAS / %
O=C1N(Cc2ccc(F)cc2F)CCCC12CCCN(Cc1ccc(F)cc1F)C2=O (racemic)	0

(A) Cc1ccccc1CN1CCCC2(CCCN(Cc3ccccc3F)C2=O)C1=O (racemic)
(B) O=C1N(Cc2ccccc2F)CCCC12CCCN(Cc1ccccc1F)C2=O (racemic)
(C) O=C1N(Cc2ccsc2)CCCC12CCCN(Cc1cccc(F)c1F)C2=O (racemic)
Query :: Arrange the 3 entries by pre-emergence activity against TRZAS so the values rise. Your answer should be the labels, listed in the requested order.
Result :: A, C, B

(A) O=C1N(Cc2cccc(F)c2F)CCCC12CCN(Cc1c(F)cccc1F)C2=O (racemic)
(B) O=C1N(Cc2cccc(F)c2F)CCCC12CCCN(Cc1cccc(F)c1F)C2=O (racemic)
Query :: Of the pair A and B , name the member with the lesser recorded pre-emergence activity against TRZAS. Give the label of your selection.
Result :: A
(A: 0%, B: 20%)

(a) O=C1N(Cc2ccccc2F)CCCC12CCN(Cc1ccccc1F)C2=O (racemic)
(b) O=C1N(Cc2ccccc2)CCC12CCCN(Cc1cccc(F)c1F)C2=O (racemic)
Query :: Of the pair a and b , name the member with the lesser recorded pre-emergence activity against TRZAS. Give the label of your selection.
Result :: a
(a: 0%, b: 20%)

(a) O=C1N(Cc2ccccc2F)CCC12CCCN(Cc1c(F)cccc1F)C2=O (racemic)
(b) O=C1N(Cc2c(F)ccc(F)c2F)CCCC12CCCN(Cc1c(F)ccc(F)c1F)C2=O (racemic)
Query :: Of the pair a and b , name the member with the lesser recorded pre-emergence activity against TRZAS. Give the label of your selection.
Result :: a

====

System: VIOTR
Experiment: Herbicidal pre-emergence action, section C (Table C12)
Assay type: in vivo, Viola tricolor
Settings: application rate 80 g/ha; visual grading after ca. 3 weeks
assay-endpoint: pre-emergence activity against VIOTR (%)
Reply numerically in %, unit not repeated.

molecule	measure-unit	pre-emergence activity against VIOTR
O=C1N(Cc2ccccc2F)CCC12CCCN(Cc1c(F)cccc1F)C2=O (racemic)	%	90
O=C1N(Cc2cccc(F)c2F)CCCC12CCN(Cc1cccc(F)c1F)C2=O (racemic)	%	90
O=C1N(Cc2cc(F)c(F)cc2F)CCCC12CCCN(Cc1cc(F)c(F)cc1F)C2=O (single isomer, unassigned; (+))	%	90
O=C1N(Cc2ccccc2F)CCCC12CCN(Cc1ccccc1Cl)C2=O (racemic)	%	90
O=C1N(Cc2ccccc2F)CCCC12CCCN(Cc1ccccc1F)C2=O (single isomer, unassigned) [I-001]	%	90
O=C1N(Cc2cccc(F)c2F)CCCC12CCN(Cc1c(F)cccc1F)C2=O (racemic)	%	90
O=C1N(Cc2ccccc2F)CCCC12CCCN(Cc1ccccc1F)C2=O (racemic) [I-005]	%	80
O=C1N(Cc2cccc(F)c2F)CCC12CCCN(Cc1c(F)cccc1F)C2=O (racemic)	%	90

Please examine the following record next.
Query :: Record lookup: for VIOTR, what pre-emergence activity against VIOTR belongs to O=C1N(Cc2ccccc2)CCCC12CCCN(Cc1ccccc1F)C2=O (racemic) ?
Result :: 80
